- Tested on: SNB-75 CNS
- experiment notes: NCI-60 one-dose screen, 48 h
- condition description: 10 µM unless noted
This is part of a sample that, as a whole, favours compounds with a hit. Of some 83,000 tested, about 20% had one in any assay. The source made the active and inactive calls. How the source made its calls: active means growth percent below 10; inactive means the rest.
Classes to choose from: yes (1) for active, no (0) for inactive

The examples below pair each entry with its known result.
>>> print(df.to_string())
                                   molecule  tested_target  assigned_class
0  O=[N+]([O-])c1ccc2nc(N/N=C/c3ccc(O)cc3)sc2c1     SNB-75 CNS          no (0)
1  COC(=O)c1c2c(c(C)[n+]([O-])c1C)C(=O)C=C(NCc1cccc(Cl)c1)C2=O     SNB-75 CNS         yes (1)
2  COc1ccc(C2=NOC(CC(=O)N(CCO)CCO)C2)cc1OC1CCCC1 (stereo unspecified)     SNB-75 CNS          no (0)

Ask | Which outcome was assigned to CCOC(=O)c1cn2c3c(cc(F)cc3c1=O)C(CC)c1ccccc1C2 (stereo unspecified) in this test?
Reply | no (0)

Ask | Quick one: "COc1cc2nc(N3CCC[C@H](NC4=CC(=O)c5ccccc5C4=O)C3)nc(N)c2cc1OC"
Reply | yes (1)

Ask | Quick one: "O=C(COc1ccc(/C=C2\CSc3ccccc3C2=O)cc1)c1ccc(Cl)cc1"
Reply | no (0)

Ask | Quick one: "CSc1ccc(OC(C)=O)cc1C"
Reply | no (0)

Ask | Quick one: "COc1ccc(OC)c2ncccc12"
Reply | no (0)

Ask | Quick one: "Cc1ccc(NS(=O)(=O)c2ccc(-c3cnc(C4CC4)o3)cc2)cc1"
Reply | no (0)

Ask | Quick one: "Cc1cccc2c(=O)c3c(sc12)c(NCCCN)nc1ccccc13"
Reply | no (0)

Ask | Quick one: O=C(NCc1ccc(F)cc1)C1CN(c2ccc(Cl)cc2)N(c2ccc(Cl)cc2)C1=O (stereo unspecified)
Reply | no (0)
